- Test system: Rattus norvegicus
- measurement protocol: Antihypertensive activity in spontaneous hypertensive rat model assessed as change in blood pressure at 100 mg/kg, po on day 1 and 3 measured 2 hrs post dose on day 3 by standard 3-day test
- Format: functional
The source made the active and inactive calls. The calls are words filed in the database; no cut-off is given here.
readout label: Activity

O=C(NN1CCN(CCc2c[nH]c3ccccc23)CC1)c1cccc(C(F)(F)F)c1	19 mmHg
Cc1ccccc1C(=O)NN1CCN(CCc2c[nH]c3ccccc23)CC1	19 mmHg
O=C(NN1CCN(Cc2c[nH]c3ccccc23)CC1)c1ccccc1	Active
Cc1[nH]c2ccccc2c1CCN1CCN(NC(=O)c2ccccc2)CC1	37 mmHg
Cc1cccc(C(=O)NN2CCN(CCc3c[nH]c4ccccc34)CC2)c1	26 mmHg

# return recorded Activity for entry O=C(NN1CCN(Cc2c[nH]c3ccccc23)CC1)c1ccc(F)cc1
Active

###

- Tested on: Rattus norvegicus
- measurement protocol: Antihypertensive activity in spontaneous hypertensive rat model assessed as change in blood pressure at 100 mg/kg, po on day 1 and 3 measured 2 hrs post dose on day 3 by standard 3-day test
- Assay type: functional
Catalogue of Activity values
Output spec: scalar in mmHg, unitless text.

Observe how each entry below is paired with its result.
COc1cc(C(=O)NN2CCN(Cc3c[nH]c4ccccc34)CC2)cc(OC)c1OC	36
O=C(NN1CCN(CCc2c[nH]c3ccccc23)CC1)c1ccc(F)cc1	57
COc1cc2[nH]c(C)c(CCN3CCN(NC(=O)c4ccc(F)cc4)CC3)c2cc1OC	23
COc1cc(C(=O)NN2CCN(CCc3c[nH]c4ccccc34)CC2)cc(OC)c1OC	70
O=C(NN1CCN(CCc2c[nH]c3ccccc23)CC1)C1CCCCC1	35
O=C(NN1CCN(CCc2c[nH]c3ccccc23)CC1)c1ccc(C(F)(F)F)cc1	36
O=C(NN1CCN(CCc2c[nH]c3ccccc23)CC1)c1ccc([N+](=O)[O-])cc1	16
COc1cc2[nH]c(C)c(CCN3CCN(NC(=O)c4ccc(C(F)(F)F)cc4)CC3)c2cc1OC.Cl	5
Cc1[nH]c2ccccc2c1CCN1CCN(NC(=O)c2ccc(F)cc2)CC1	25
COc1cc(OC)cc(C(=O)NN2CCN(CCc3c[nH]c4ccccc34)CC2)c1	111

Indicate the recorded Activity value for this compound: COc1cccc(C(=O)NN2CCN(CCc3c[nH]c4ccccc34)CC2)c1
2

Tell me measured Activity for O=C(NN1CCN(CCc2c[nH]c3ccccc23)CC1)c1ccco1 please.
64

###

- Test system: Rattus norvegicus
- measurement protocol: Antihypertensive activity in spontaneous hypertensive rat model assessed as change in blood pressure at 100 mg/kg, po on day 1 and 3 measured 2 hrs post dose on day 3 by standard 3-day test
- Assay type: functional
This listing pairs molecules with measured Activity.

The following molecules have reported results that may help.
COc1ccccc1C(=O)NN1CCN(CCc2c[nH]c3ccccc23)CC1	23 mmHg
Cc1ccc(C(=O)NN2CCN(CCc3c[nH]c4ccccc34)CC2)cc1	43 mmHg
CC(=O)NN1CCN(CCc2c[nH]c3ccccc23)CC1	40 mmHg
O=C(NN1CCN(CCc2c[nH]c3ccccc23)CC1)C(c1ccccc1)c1ccccc1	10 mmHg

Entry O=C(NN1CCN(CCc2c[nH]c3ccccc23)CC1)C1CC2CCC1C2 (stereo not given) needs its Activity filled in; supply it.
11 mmHg

Look up and state reported Activity for COc1ccc(C(=O)NN2CCN(CCc3c[nH]c4ccccc34)CC2)cc1
19 mmHg

Read off the recorded Activity for COc1cc2[nH]c(C)c(CCN3CCN(NC(=O)c4ccccc4)CC3)c2cc1OC
12 mmHg

Answer with the recorded Activity for the molecule listed here: COc1cc2[nH]c(C)c(CCN3CCN(NC(=O)c4ccccc4OC)CC3)c2cc1OC.Cl
15 mmHg

Using known records, supply Activity for Cc1[nH]c2ccccc2c1CCN1CCN(NC(=O)c2ccc([N+](=O)[O-])cc2)CC1
20 mmHg

Annotate the molecule O=C(NN1CCN(CCc2c[nH]c3ccccc23)CC1)c1ccc(Cl)cc1 with its measured Activity.
22 mmHg

###

- Test system: Rattus norvegicus
- measurement protocol: Antihypertensive activity in spontaneous hypertensive rat model assessed as change in blood pressure at 100 mg/kg, po on day 1 and 3 measured 2 hrs post dose on day 3 by standard 3-day test
- Format: functional
readout label: Activity (mmHg)
Note: unit mmHg is implicit; provide only the numeric part.

// solved cases for Activity follow
O=C(NN1CCN(CC(O)c2c[nH]c3ccccc23)CC1)c1ccccc1 (racemic)	33
O=C(NN1CCN(CCc2c[nH]c3ccccc23)CC1)c1ccncc1	24
O=C(NN1CCN(CCc2c[nH]c3ccccc23)CC1)c1ccccc1F	56

Then there is this compound:
Please give the documented Activity of O.O=C(NN1CCN(CCc2c[nH]c3ccccc23)CC1)c1ccccc1
56
